- tgt: cereblon (CRBN)—DNA damage protein 1 (DDB1) complex (Homo sapiens, UniProt Q96SW2)
- Construct: encoding amino acid residues 1 to 442 (Uniprot Q96SW2); hexahistidine (N); thrombin cleavage site (N); made in house; host or cells: Sf9 insect cells (baculovirus co-infection)
- Sequence (Q96SW2 with tags, fused parts or gaps): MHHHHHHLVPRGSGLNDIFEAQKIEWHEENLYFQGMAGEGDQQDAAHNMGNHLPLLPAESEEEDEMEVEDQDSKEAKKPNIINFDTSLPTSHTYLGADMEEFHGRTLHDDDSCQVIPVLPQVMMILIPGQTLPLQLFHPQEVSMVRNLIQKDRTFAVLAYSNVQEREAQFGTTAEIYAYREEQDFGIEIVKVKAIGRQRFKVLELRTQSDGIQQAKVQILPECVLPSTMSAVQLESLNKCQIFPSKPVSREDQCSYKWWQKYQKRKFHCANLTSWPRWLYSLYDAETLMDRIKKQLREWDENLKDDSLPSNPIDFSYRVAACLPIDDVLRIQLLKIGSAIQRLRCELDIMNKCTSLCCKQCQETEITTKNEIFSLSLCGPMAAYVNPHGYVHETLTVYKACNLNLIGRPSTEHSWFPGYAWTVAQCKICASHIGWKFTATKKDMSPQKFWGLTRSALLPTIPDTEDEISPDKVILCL
- experiment notes: Cereblon HTRF binding assay
pIC50: −log10 of the molar value.

molecule: Cn1ccc2c(N3CCC(=O)NC3=O)cc(N3CCNCC3)cc21 [Example 90]
tgt: cereblon (CRBN)—DNA damage protein 1 (DDB1) complex (Homo sapiens, UniProt Q96SW2)
pIC50: 6.11

molecule: COc1cc(N2CCC(=O)NC2=O)cc2[nH]ccc12 [Example 52]
tgt: cereblon (CRBN)—DNA damage protein 1 (DDB1) complex (Homo sapiens, UniProt Q96SW2)
pIC50: 6.35

molecule: CC(=O)N1CCC(c2cc3ccc(N4CCC(=O)NC4=O)cc3[nH]2)CC1 [Example 83]
tgt: cereblon (CRBN)—DNA damage protein 1 (DDB1) complex (Homo sapiens, UniProt Q96SW2)
pIC50: 6.95

molecule: O=C1CCN(c2cnc3cnoc3c2)C(=O)N1 [Example 36]
tgt: cereblon (CRBN)—DNA damage protein 1 (DDB1) complex (Homo sapiens, UniProt Q96SW2)
pIC50: 6.94

molecule: CN1CCC(n2ccc3cc(N4CCC(=O)NC4=O)ccc32)CC1 [Example 114]
tgt: cereblon (CRBN)—DNA damage protein 1 (DDB1) complex (Homo sapiens, UniProt Q96SW2)
pIC50: 5.98

molecule: O=C1CCN(c2ccc3oc(=O)[nH]c3c2)C(=O)N1 [Example 47]
tgt: cereblon (CRBN)—DNA damage protein 1 (DDB1) complex (Homo sapiens, UniProt Q96SW2)
pIC50: 5.51

molecule: O=C1CCN(c2cccc3ncsc23)C(=O)N1 [Example 2]
tgt: cereblon (CRBN)—DNA damage protein 1 (DDB1) complex (Homo sapiens, UniProt Q96SW2)
pIC50: 5.70

molecule: CN1CCN(c2nc3ccc(N4CCC(=O)NC4=O)cc3o2)CC1 [Example 99]
tgt: cereblon (CRBN)—DNA damage protein 1 (DDB1) complex (Homo sapiens, UniProt Q96SW2)
pIC50: 5.34

molecule: O=C1CCN(c2ccc3nn[nH]c3c2)C(=O)N1 [Example 38]
tgt: cereblon (CRBN)—DNA damage protein 1 (DDB1) complex (Homo sapiens, UniProt Q96SW2)
pIC50: 6.25

molecule: CNC(=O)Cn1ccc2ccc(N3CCC(=O)NC3=O)cc21 [Example 68]
tgt: cereblon (CRBN)—DNA damage protein 1 (DDB1) complex (Homo sapiens, UniProt Q96SW2)
pIC50: 5.65

molecule: O=C1CCN(c2ccn3ccnc3c2)C(=O)N1 [Example 7]
tgt: cereblon (CRBN)—DNA damage protein 1 (DDB1) complex (Homo sapiens, UniProt Q96SW2)
pIC50: 5.52

molecule: CN1CCC(n2ncc3cc(N4CCC(=O)NC4=O)ccc32)CC1 [Example 108]
tgt: cereblon (CRBN)—DNA damage protein 1 (DDB1) complex (Homo sapiens, UniProt Q96SW2)
pIC50: 5.42

molecule: CN1CCN(c2ccc(N3CCC(=O)NC3=O)c3cc[nH]c23)CC1 [Example 124]
tgt: cereblon (CRBN)—DNA damage protein 1 (DDB1) complex (Homo sapiens, UniProt Q96SW2)
pIC50: 6.28

molecule: O=C1CCN(c2ccn3cc(C4CCNCC4)nc3c2)C(=O)N1 [Example 92]
tgt: cereblon (CRBN)—DNA damage protein 1 (DDB1) complex (Homo sapiens, UniProt Q96SW2)
pIC50: 5.28

molecule: O=C1CCN(c2ccc3nc(C4CCNCC4)oc3c2)C(=O)N1 [Example 96]
tgt: cereblon (CRBN)—DNA damage protein 1 (DDB1) complex (Homo sapiens, UniProt Q96SW2)
pIC50: 5.43

molecule: O=C1CCN(c2ccc3c(cnn3C3CCNCC3)c2)C(=O)N1 [Example 106]
tgt: cereblon (CRBN)—DNA damage protein 1 (DDB1) complex (Homo sapiens, UniProt Q96SW2)
pIC50: 5.39

molecule: O=C1CCN(c2cccc3[nH]c(C4CCNCC4)cc23)C(=O)N1 [Example 86]
tgt: cereblon (CRBN)—DNA damage protein 1 (DDB1) complex (Homo sapiens, UniProt Q96SW2)
pIC50: 6.54

molecule: CN1CCN(c2cn(C)c3ccc(N4CCC(=O)NC4=O)cc23)CC1 [Example 80]
tgt: cereblon (CRBN)—DNA damage protein 1 (DDB1) complex (Homo sapiens, UniProt Q96SW2)
pIC50: 5.50

molecule: Cn1c(=O)oc2cc(N3CCC(=O)NC3=O)ccc21 [Example 12]
tgt: cereblon (CRBN)—DNA damage protein 1 (DDB1) complex (Homo sapiens, UniProt Q96SW2)
pIC50: 4.96

molecule: O=C1CCN(c2ccc3nc(N4CCNCC4)oc3c2)C(=O)N1 [Example 98]
tgt: cereblon (CRBN)—DNA damage protein 1 (DDB1) complex (Homo sapiens, UniProt Q96SW2)
pIC50: 5.51

molecule: O=c1ccn(-c2ccc3cn(C4CCNCC4)nc3c2)c(=O)[nH]1 [Example 131]
tgt: cereblon (CRBN)—DNA damage protein 1 (DDB1) complex (Homo sapiens, UniProt Q96SW2)
pIC50: 5.67

molecule: CC(=O)N1CCC(n2ccc3ccc(N4CCC(=O)NC4=O)cc32)CC1 [Example 122]
tgt: cereblon (CRBN)—DNA damage protein 1 (DDB1) complex (Homo sapiens, UniProt Q96SW2)
pIC50: 5.67

molecule: O=C1CCN(c2ccc3cc[nH]c3c2)C(=O)N1 [Example 55]
tgt: cereblon (CRBN)—DNA damage protein 1 (DDB1) complex (Homo sapiens, UniProt Q96SW2)
pIC50: 6.66

molecule: CN1CCn2c(cc3cc(N4CCC(=O)NC4=O)ccc32)C1 [Example 105]
tgt: cereblon (CRBN)—DNA damage protein 1 (DDB1) complex (Homo sapiens, UniProt Q96SW2)
pIC50: 6.34

molecule: O=C1CCN(c2ccc(N3CCNCC3)c3[nH]ccc23)C(=O)N1 [Example 123]
tgt: cereblon (CRBN)—DNA damage protein 1 (DDB1) complex (Homo sapiens, UniProt Q96SW2)
pIC50: 6.22

molecule: O=C1CCN(c2ccc3sc(N4CCNCC4)nc3c2)C(=O)N1 [Example 100]
tgt: cereblon (CRBN)—DNA damage protein 1 (DDB1) complex (Homo sapiens, UniProt Q96SW2)
pIC50: 5.97

molecule: CN1CCn2c(cc3ccc(N4CCC(=O)NC4=O)cc32)C1 [Example 103]
tgt: cereblon (CRBN)—DNA damage protein 1 (DDB1) complex (Homo sapiens, UniProt Q96SW2)
pIC50: 6.17

molecule: CN1CCN(c2cn(C)c3cc(N4CCC(=O)NC4=O)ccc23)CC1 [Example 75]
tgt: cereblon (CRBN)—DNA damage protein 1 (DDB1) complex (Homo sapiens, UniProt Q96SW2)
pIC50: 5.39

molecule: CN1CCN(c2c[nH]c3cc(N4CCC(=O)NC4=O)ccc23)CC1 [Example 72]
tgt: cereblon (CRBN)—DNA damage protein 1 (DDB1) complex (Homo sapiens, UniProt Q96SW2)
pIC50: 6.03

molecule: O=C1CCN(c2cccc3c2CNC3=O)C(=O)N1 [Example 43]
tgt: cereblon (CRBN)—DNA damage protein 1 (DDB1) complex (Homo sapiens, UniProt Q96SW2)
pIC50: 5.44

molecule: CNC(=O)Cn1ccc2c(N3CCC(=O)NC3=O)cccc21 [Example 70]
tgt: cereblon (CRBN)—DNA damage protein 1 (DDB1) complex (Homo sapiens, UniProt Q96SW2)
pIC50: 5.99

molecule: O=C1CCN(c2ccc3c(ccn3C3CCNCC3)c2)C(=O)N1 [Example 113]
tgt: cereblon (CRBN)—DNA damage protein 1 (DDB1) complex (Homo sapiens, UniProt Q96SW2)
pIC50: 5.97

molecule: Cc1c(N2CCC(=O)NC2=O)c(F)cc2cc[nH]c12 [Example 58]
tgt: cereblon (CRBN)—DNA damage protein 1 (DDB1) complex (Homo sapiens, UniProt Q96SW2)
pIC50: 6.54

molecule: CN1Cc2ccc(N3CCC(=O)NC3=O)cc2C1 [Example 25]
tgt: cereblon (CRBN)—DNA damage protein 1 (DDB1) complex (Homo sapiens, UniProt Q96SW2)
pIC50: 5.53

molecule: O=C1CCN(c2ccc3nc[nH]c3c2)C(=O)N1 [Example 41]
tgt: cereblon (CRBN)—DNA damage protein 1 (DDB1) complex (Homo sapiens, UniProt Q96SW2)
pIC50: 5.93

molecule: O=C1CCN(c2ccc3ncsc3c2)C(=O)N1 [Example 9]
tgt: cereblon (CRBN)—DNA damage protein 1 (DDB1) complex (Homo sapiens, UniProt Q96SW2)
pIC50: 5.27

molecule: Cc1c(N2CCC(=O)NC2=O)cnc2cc[nH]c12 [Example 49]
tgt: cereblon (CRBN)—DNA damage protein 1 (DDB1) complex (Homo sapiens, UniProt Q96SW2)
pIC50: 6.91

molecule: Cc1cn(-c2ccc3cc[nH]c3c2)c(=O)[nH]c1=O [Example 15]
tgt: cereblon (CRBN)—DNA damage protein 1 (DDB1) complex (Homo sapiens, UniProt Q96SW2)
pIC50: 4.98

molecule: O=C1CCN(c2c(Cl)ccc3[nH]ccc23)C(=O)N1 [Example 64]
tgt: cereblon (CRBN)—DNA damage protein 1 (DDB1) complex (Homo sapiens, UniProt Q96SW2)
pIC50: 7.11

molecule: O=C1CCN(c2cnc3cc[nH]c3c2)C(=O)N1 [Example 40]
tgt: cereblon (CRBN)—DNA damage protein 1 (DDB1) complex (Homo sapiens, UniProt Q96SW2)
pIC50: 6.73
